B1: Hairpin Ribozyme (parent)
chain: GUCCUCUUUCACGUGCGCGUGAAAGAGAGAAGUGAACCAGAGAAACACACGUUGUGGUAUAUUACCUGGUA

Variants of: B1
method.notes: self-cleavage, relative activity (ratio to wild type); higher = more cleavage; co-transcriptional
experimental.readout: self-cleavage

G13A C46G | 0.0618
U55A A64C | 0.13
U8C G32C | 0.0916
A31G U62G | 0.199
G1C C66U | 0.12
C50A A61U | 0.281
A23U A61C | 0.126
A39U A43C | 0.129
G15U G27U | 0.35
A30G G34C | 0.79
A41U A45U | 0.0714
A26C U70C | 0.728
G42A U67C | 0.105
A23G G69C | 0.303
G29A A39U | 0.107
U2A C66U | 0.127
C38A A43U | 0.152
U7G A11U | 0.58
C6A G69A | 0.23
G27A G54U | 0.213
G1U A59U | 0.195
G17C A43U | 0.0572
A28G U55G | 0.427
G19U A39G | 0.297
G21U G40A | 0.309
G15A A45U | 0.204
G13C U14A | 0.688
C3A U52G | 0.538
A30G A41C | 0.201
U8G A41U | 1.07
U2A C16U | 0.259
U8C C37U | 0.347
U55A G69A | 0.172
A45C C65U | 0.102
C18U G51C | 0.881
U2G U63C | 0.142
A11C U58A | 0.635
U8C A47U | 0.224
C18G U63A | 0.147
G29U A35C | 0.11
A26C U55G | 0.297
G13C A22U | 0.528
U7A A39C | 0.498
C65G U67C | 0.183
U2G G32A | 0.0684
G1C A59C | 0.113
